Assayed system: Lanosterol 14-alpha demethylase (Homo sapiens, UniProt Q16850)
Sequence (Q16850 whole entry): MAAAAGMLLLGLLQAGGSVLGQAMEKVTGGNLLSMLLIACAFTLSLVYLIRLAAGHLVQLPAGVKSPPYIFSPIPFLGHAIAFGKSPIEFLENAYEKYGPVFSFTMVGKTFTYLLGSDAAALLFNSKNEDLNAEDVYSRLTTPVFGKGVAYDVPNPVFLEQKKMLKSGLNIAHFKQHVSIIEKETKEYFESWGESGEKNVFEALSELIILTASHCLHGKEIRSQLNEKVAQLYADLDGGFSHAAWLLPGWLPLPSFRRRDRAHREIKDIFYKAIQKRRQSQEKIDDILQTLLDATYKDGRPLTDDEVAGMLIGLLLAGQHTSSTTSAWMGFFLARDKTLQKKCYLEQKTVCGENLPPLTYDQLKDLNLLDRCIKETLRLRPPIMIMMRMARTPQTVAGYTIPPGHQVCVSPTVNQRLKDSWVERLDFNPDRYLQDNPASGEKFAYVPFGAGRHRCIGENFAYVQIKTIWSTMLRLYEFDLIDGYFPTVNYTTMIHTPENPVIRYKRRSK
pIC50: −log10 of the molar value.
Observation type: pIC50

INSERT INTO measurements (compound, assayed_system, result_value) VALUES
  ('CCC(=O)N(CCc1ccc(C(F)(F)F)nc1)C[C@@H](O)c1cccnc1 [US20230339890, Compound 30]', 'Lanosterol 14-alpha demethylase (Homo sapiens, UniProt Q16850)', '< 6.00');

Pending compound:
query: I'd like to know its pIC50. The compound in question is CC(C)(C)OC(=O)NCCCCCN(C[C@@H](O)c1cccnc1)C(=O)Cc1ccc(C#N)c(Cl)c1 [US20230339890, Compound 142]
result: > 7.00
